system: HEK-293T; experiment: Multiplex assay against HEK293T; type: toxicity, cell-based; conditions: human, 24 h, 1 µM, compound concentration 1 uM, replicate 1
Reported Population Pyknosed Nuclei (%) values are given for each entry in this list.
measurement.type: Population Pyknosed Nuclei (%)

> print(dat)
                                   compound  assay.result
1  Cc1nc(-c2cn3c(n2)-c2ccc(-c4cnn(C(C)(C)C(N)=O)c4)cc2OCC3)n(C(C)C)n1            30
2  CN1CCN(CCOc2cc(OC3CCOCC3)c3c(Nc4c(Cl)ccc5c4OCO5)ncnc3c2)CC1            52
3  CN1CCCC(n2nc(Cc3ccc(Cl)cc3)c3ccccc3c2=O)CC1.Cl (centres undefined) [AZELASTINE HYDROCHLORIDE]            54
4  OC1(c2ccc(Cl)cc2)CCN(Cc2c[nH]c3ccccc23)CC1            46
5  Cc1nc(-c2ccc(-c3ccc(C(=O)N4CCc5cc6c(cc54)C4(CCN(C)CC4)CO6)cc3)c(C)c2)no1            46
6  CNc1nc(NCc2ccc(NS(C)(=O)=O)cc2Cl)cc(-c2ccccn2)n1            31
7  Cc1c(-c2ccc(O)cc2)n(Cc2ccc(OCCN3CCCCCC3)cc2)c2ccc(O)cc12            40
8  O=C1NCN(c2ccccc2)C12CCN(CCCOc1ccc(F)cc1)CC2 [SPIRAMIDE]            28
9  Cc1[nH]c(/C=C2\C(=O)Nc3ccc(S(=O)(=O)N(C)c4cccc(Cl)c4)cc32)c(C)c1C(=O)N1CCN(C)CC1            40
